Assay summary: Intrinsic clearance in mouse liver microsomes assessed per mg protein at 0.1 uM preincubated for 10 mins followed by NADPH addition and measured up to 60 mins by UPLC-MS/MS analysis
Type: ADME, Microsome
Test context: read-out: CLH
Listed next: entries and their corresponding microsomal CLint at 0.1 µM.
Reply numerically in µL/min/mg, unit not repeated.

Some compounds with recorded microsomal CLint at 0.1 µM:
{"Structure": "CNC(=O)Nc1ccc2c(c1)CC[C@@]21OC(=O)N(CC(=O)N2Cc3ccc(F)cc3CC[C@H]2C2CC2)C1=O", "Measured metric": "microsomal CLint at 0.1 µM", "Readout number": 150}
{"Structure": "Cn1cc(-c2ccc3c(c2)CC[C@]32NC(=O)N(CC(=O)N3Cc4cc(F)ccc4OC[C@H]3C3CC3)C2=O)cn1", "Measured metric": "microsomal CLint at 0.1 µM", "Readout number": 155}
{"Structure": "CNC(=O)Nc1ccc2c(c1)CC[C@@]21OC(=O)N(CC(=O)N2Cc3cc(F)ccc3OC[C@H]2C(F)(F)F)C1=O", "Measured metric": "microsomal CLint at 0.1 µM", "Readout number": 52.3}
{"Structure": "CNC(=O)Nc1ccc2c(c1)CC[C@@]21OC(=O)N(CC(=O)N2Cc3ccccc3OC[C@H]2C)C1=O", "Measured metric": "microsomal CLint at 0.1 µM", "Readout number": 37.3}
{"Structure": "CNC(=O)Nc1ccc2c(c1)CC[C@]21NC(=O)N(CC(=O)N2Cc3cc(F)ccc3OC[C@H]2C(F)(F)F)C1=O", "Measured metric": "microsomal CLint at 0.1 µM", "Readout number": 16.4}
{"Structure": "CNC(=O)Nc1ccc2c(c1)CC[C@]21NC(=O)N(CC(=O)N2Cc3cc(F)ccc3OC[C@H]2C2CC2)C1=O", "Measured metric": "microsomal CLint at 0.1 µM", "Readout number": 9.6}

// microsomal CLint at 0.1 µM lookup, key: `Cn1cc(-c2ccc3c(c2)CC[C@]32NC(=O)N(CC(=O)N3Cc4cc(F)ccc4OC[C@H]3C(F)(F)F)C2=O)cn1`
36.8

Given the entry `CNC(=O)Nc1ccc2c(c1)CC[C@@]21OC(=O)N(CC(=O)N2Cc3ccccc3CC[C@H]2C2CC2)C1=O` , report its measured microsomal CLint at 0.1 µM.
197

----------
Assay summary: Tmax in Sprague-Dawley rat at 3 mg/kg, po by LC-MS/MS analysis
Format: ADME, organism-based
Test context: in vivo
This section presents molecules with their documented Tmax values.
Write down the numeric answer in min and omit the unit.

Some molecules with known Tmax results, for comparison:
{"Structure": "CNC(=O)Nc1ccc2c(c1)CC[C@]21NC(=O)N(CC(=O)N2Cc3cc(F)ccc3OC[C@H]2C(F)(F)F)C1=O", "Unit abbreviation": "min", "Tmax": 15}
{"Structure": "Cn1cc(-c2ccc3c(c2)CC[C@@]32OC(=O)N(CC(=O)N3Cc4cc(F)ccc4OC[C@H]3C(F)(F)F)C2=O)cn1", "Unit abbreviation": "min", "Tmax": 25.2}
{"Structure": "Cn1cc(-c2ccc3c(c2)CC[C@]32NC(=O)N(CC(=O)N3Cc4cc(F)ccc4OC[C@H]3C3CC3)C2=O)cn1", "Unit abbreviation": "min", "Tmax": 30}

// Tmax lookup, key: `CNC(=O)Nc1ccc2c(c1)CC[C@@]21OC(=O)N(CC(=O)N2Cc3ccccc3CC[C@H]2C(F)(F)F)C1=O`
30

What value of measured Tmax is listed for `CNC(=O)Nc1ccc2c(c1)CC[C@@]21OC(=O)N(CC(=O)N2Cc3cc(F)ccc3OC[C@H]2C(F)(F)F)C1=O` ?
60

// Tmax lookup, key: `Cn1cc(-c2ccc3c(c2)CC[C@@]32OC(=O)N(CC(=O)N3Cc4cc(F)ccc4OC[C@H]3C3CC3)C2=O)cn1`
30

----------
Tested on: MV4-11
Assay summary: Antiproliferative activity against human MV4-11 cells measured after 3 days by celltiter-glo luminescence assay
Assay type: functional, cell-based
Test context: MV4-11, 72 h
pIC50: −log10 of the molar value.
Measured metric: pIC50

{"Structure": "CNC(=O)Nc1ccc2c(c1)CC[C@@]21OC(=O)N(CC(=O)N2Cc3ccccc3CC[C@@H]2C)C1=O", "pIC50": "< 5.30"}
{"Structure": "CNC(=O)Nc1ccc2c(c1)CC[C@@]21NC(=O)N(CC(=O)N2Cc3cc(F)ccc3OC[C@H]2C2CC2)C1=O", "pIC50": "< 6.30"}
{"Structure": "CNC(=O)Nc1ccc2c(c1)CC[C@@]21OC(=O)N(CC(=O)N2CCCc3ccccc3C2)C1=O", "pIC50": "< 6.00"}

Any idea what its pIC50 is? The molecule is `CNC(=O)Nc1ccc2c(c1)CC[C@@]21NC(=O)N(CC(=O)N2Cc3cc(F)ccc3OC[C@H]2C(F)(F)F)C1=O`
< 6.00

----------
log10(AUC(0-t)) values by entry
Assay summary: AUClast in Sprague-Dawley rat at 3 mg/kg, po by LC-MS/MS analysis
Format: ADME, organism-based
Set-up: dose 3 mg/kg, time 0 - last, route oral
Test context: in vivo
Would you kindly interpret these values as log10 of AUC(0-t) expressed in µM·h?

The cases that follow already have their log10(AUC(0-t)) on record.
{"Structure": "Cn1cc(-c2ccc3c(c2)CC[C@@]32OC(=O)N(CC(=O)N3Cc4cc(F)ccc4OC[C@H]3C3CC3)C2=O)cn1", "log10(AUC(0-t))": -1.05}
{"Structure": "CNC(=O)Nc1ccc2c(c1)CC[C@@]21OC(=O)N(CC(=O)N2Cc3ccccc3CC[C@H]2C2CC2)C1=O", "log10(AUC(0-t))": -0.68}
{"Structure": "Cn1cc(-c2ccc3c(c2)CC[C@]32NC(=O)N(CC(=O)N3Cc4cc(F)ccc4OC[C@H]3C3CC3)C2=O)cn1", "log10(AUC(0-t))": -0.01}

Need log10(AUC(0-t)) of `Cn1cc(-c2ccc3c(c2)CC[C@]32NC(=O)N(CC(=O)N3Cc4cc(F)ccc4OC[C@H]3C(F)(F)F)C2=O)cn1` , thanks.
0.57

Which log10(AUC(0-t)) value is on record for `CNC(=O)Nc1ccc2c(c1)CC[C@]21NC(=O)N(CC(=O)N2Cc3cc(F)ccc3OC[C@H]2C2CC2)C1=O` ?
-2.10

----------
In this section we review reported microsomal CLint at 0.1 µM values for a set of compounds.
Assay summary: Intrinsic clearance in human liver microsomes assessed per mg protein at 0.1 uM preincubated for 10 mins followed by NADPH addition and measured up to 60 mins by UPLC-MS/MS analysis
Type: ADME, Microsome
Test context: read-out: CLH
Write the value in µL/min/mg as a bare number.

{"Structure": "CNC(=O)Nc1ccc2c(c1)CC[C@@]21OC(=O)N(CC(=O)N2Cc3cc(F)ccc3OC[C@H]2C(F)(F)F)C1=O", "microsomal CLint at 0.1 µM / µL/min/mg": 31.1}

State the recorded microsomal CLint at 0.1 µM for this entry: `Cn1cc(-c2ccc3c(c2)CC[C@@]32OC(=O)N(CC(=O)N3Cc4cc(F)ccc4OC[C@H]3C3CC3)C2=O)cn1`
81.5

So what does the record say about microsomal CLint at 0.1 µM for `CNC(=O)Nc1ccc2c(c1)CC[C@@]21OC(=O)N(CC(=O)N2Cc3ccc(F)cc3CC[C@H]2C(F)(F)F)C1=O` ?
161

Param item = `Cn1cc(-c2ccc3c(c2)CC[C@]32NC(=O)N(CC(=O)N3Cc4cc(F)ccc4OC[C@H]3C(F)(F)F)C2=O)cn1` ; retrieve measured microsomal CLint at 0.1 µM.
18.2

Bench note: what microsomal CLint at 0.1 µM did `CNC(=O)Nc1ccc2c(c1)CC[C@@]21OC(=O)N(CC(=O)N2Cc3ccccc3CC[C@H]2C2CC2)C1=O` show?
179

----------
IC50 for assorted compounds
System: Histone acetyltransferase p300 (Homo sapiens)
Sequence (Q09472 whole entry, the tested form may be a part): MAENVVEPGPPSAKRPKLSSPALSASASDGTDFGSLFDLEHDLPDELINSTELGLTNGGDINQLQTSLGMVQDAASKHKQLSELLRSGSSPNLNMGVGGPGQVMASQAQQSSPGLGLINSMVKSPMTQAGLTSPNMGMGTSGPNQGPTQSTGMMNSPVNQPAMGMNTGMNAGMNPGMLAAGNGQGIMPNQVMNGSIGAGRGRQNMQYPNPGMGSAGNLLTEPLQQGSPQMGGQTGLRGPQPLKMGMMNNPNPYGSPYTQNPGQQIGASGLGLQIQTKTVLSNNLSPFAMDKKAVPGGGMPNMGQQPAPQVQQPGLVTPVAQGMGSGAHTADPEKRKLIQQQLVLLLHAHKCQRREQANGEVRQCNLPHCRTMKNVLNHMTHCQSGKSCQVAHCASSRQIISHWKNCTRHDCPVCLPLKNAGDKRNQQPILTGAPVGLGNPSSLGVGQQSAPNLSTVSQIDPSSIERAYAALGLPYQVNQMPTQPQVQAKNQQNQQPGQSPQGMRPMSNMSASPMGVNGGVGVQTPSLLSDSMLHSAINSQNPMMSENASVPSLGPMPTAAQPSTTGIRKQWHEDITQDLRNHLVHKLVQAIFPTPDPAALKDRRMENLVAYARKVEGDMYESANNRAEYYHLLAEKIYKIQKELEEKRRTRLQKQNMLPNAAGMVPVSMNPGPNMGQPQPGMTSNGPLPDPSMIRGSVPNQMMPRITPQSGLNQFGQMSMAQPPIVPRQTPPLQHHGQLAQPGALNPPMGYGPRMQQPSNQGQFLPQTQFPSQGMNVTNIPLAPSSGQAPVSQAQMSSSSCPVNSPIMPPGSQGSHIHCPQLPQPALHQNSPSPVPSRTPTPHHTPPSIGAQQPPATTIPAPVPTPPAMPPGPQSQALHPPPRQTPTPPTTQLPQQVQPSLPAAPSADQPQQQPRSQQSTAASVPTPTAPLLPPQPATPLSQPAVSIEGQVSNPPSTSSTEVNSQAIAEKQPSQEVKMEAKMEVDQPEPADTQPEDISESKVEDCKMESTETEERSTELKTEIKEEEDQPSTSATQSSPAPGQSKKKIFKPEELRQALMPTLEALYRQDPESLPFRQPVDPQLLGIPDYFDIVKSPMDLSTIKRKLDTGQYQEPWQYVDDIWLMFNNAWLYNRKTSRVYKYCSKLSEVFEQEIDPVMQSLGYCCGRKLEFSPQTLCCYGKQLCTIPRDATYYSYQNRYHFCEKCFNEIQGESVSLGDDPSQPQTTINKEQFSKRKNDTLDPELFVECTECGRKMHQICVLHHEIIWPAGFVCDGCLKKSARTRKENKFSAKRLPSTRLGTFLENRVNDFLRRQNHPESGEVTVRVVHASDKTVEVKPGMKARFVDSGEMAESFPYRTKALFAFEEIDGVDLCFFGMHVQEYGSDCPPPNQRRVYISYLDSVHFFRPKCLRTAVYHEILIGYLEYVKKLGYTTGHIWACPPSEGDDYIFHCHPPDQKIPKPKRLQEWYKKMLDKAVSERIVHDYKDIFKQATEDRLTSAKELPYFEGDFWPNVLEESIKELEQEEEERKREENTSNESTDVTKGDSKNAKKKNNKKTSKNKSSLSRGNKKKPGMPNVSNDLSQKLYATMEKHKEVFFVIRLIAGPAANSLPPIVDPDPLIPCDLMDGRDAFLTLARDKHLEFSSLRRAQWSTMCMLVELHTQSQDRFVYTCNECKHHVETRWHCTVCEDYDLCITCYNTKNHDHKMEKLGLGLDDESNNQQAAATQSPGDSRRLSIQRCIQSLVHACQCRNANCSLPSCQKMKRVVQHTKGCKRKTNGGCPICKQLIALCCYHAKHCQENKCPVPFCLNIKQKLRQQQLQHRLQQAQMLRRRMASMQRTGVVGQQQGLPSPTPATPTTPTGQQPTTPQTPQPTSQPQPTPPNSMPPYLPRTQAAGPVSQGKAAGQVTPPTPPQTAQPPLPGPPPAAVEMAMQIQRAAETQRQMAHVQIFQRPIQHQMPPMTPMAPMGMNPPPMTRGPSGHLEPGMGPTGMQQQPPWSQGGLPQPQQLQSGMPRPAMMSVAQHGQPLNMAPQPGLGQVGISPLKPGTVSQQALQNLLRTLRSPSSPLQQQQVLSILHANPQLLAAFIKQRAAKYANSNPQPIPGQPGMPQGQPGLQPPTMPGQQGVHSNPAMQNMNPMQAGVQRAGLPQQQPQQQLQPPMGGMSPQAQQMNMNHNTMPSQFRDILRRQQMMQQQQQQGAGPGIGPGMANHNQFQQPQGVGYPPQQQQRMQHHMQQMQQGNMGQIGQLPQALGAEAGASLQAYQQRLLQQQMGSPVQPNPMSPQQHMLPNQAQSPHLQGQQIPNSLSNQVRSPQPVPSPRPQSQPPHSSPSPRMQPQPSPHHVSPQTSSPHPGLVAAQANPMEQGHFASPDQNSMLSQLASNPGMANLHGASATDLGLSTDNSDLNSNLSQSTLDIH
Assay summary: Inhibition of p300 (unknown origin) using histone H3 (1 to 21 residues) as substrate preincubated for 15 mins followed by substrate and [3H]acetyl-CoA addition and measured after 60 mins by scintillation counting analysis
# do not omit the unit; it follows the number

{"Structure": "Cn1cc(-c2cnc3c(c2)CC[C@]32NC(=O)N(CC(=O)N3Cc4cc(F)ccc4OC[C@H]3C(F)(F)F)C2=O)cn1", "System": "Histone acetyltransferase p300 (Homo sapiens)", "IC50": "10 nM"}
{"Structure": "CNC(=O)Nc1ccc2c(c1)CC[C@@]21OC(=O)N(CC(=O)N2Cc3ccccc3CC[C@H]2C)C1=O", "System": "Histone acetyltransferase p300 (Homo sapiens)", "IC50": "10 nM"}
{"Structure": "CNC(=O)Nc1ccc2c(c1)CC[C@]21NC(=O)N(CC(=O)N2Cc3cc(F)ccc3OC[C@H]2C(F)(F)F)C1=O", "System": "Histone acetyltransferase p300 (Homo sapiens)", "IC50": "7.5 nM"}

Alright, here's another compound for you.
Name the recorded IC50 for `CNC(=O)Nc1ccc2c(c1)CC[C@]21OC(=O)N(CC(=O)N2Cc3ccccc3CC[C@H]2C(F)(F)F)C1=O` .
10 nM

Source listed as ChEMBL document CHEMBL4321876.
